target: human recombinant OX2 (hOX2) receptor (Homo sapiens); assay: IP-1 accumulation assay (IP-One HTRF) in hOX2-CHO cells; settings: 60 min at 37° C., mean of at least two independent experiments, read-out: EC50_OX2R Category
MEASUREMENT KIND: EC50

• O=C1COCC2(CCCN(C(=O)OCC(F)F)C2COC2CCN(c3ncc(F)cn3)CC2)N1 (racemic) [Example 77] = 1000 to 10000 nM
• CCNC(=O)N1CCCC2(COC(=O)N2)C1CO[C@H]1CC[C@@H](c2ccccc2)CC1 (mixture of isomers) [Example 10] = 1000 to 10000 nM
• CCNC(=O)N1CCC[C@]2(CCCC(=O)N2)[C@H]1CO[C@H]1CC[C@@H](c2ccccc2)CC1 (single isomer, unassigned) [Example 34] = > 10000 nM
• O=C1COC[C@@]2(CCCN(C(=O)C3CC3)[C@H]2CO[C@H]2CC[C@@H](c3ccccc3)CC2)N1 (single isomer, unassigned) [Example 9] = 100 to 1000 nM
• COC(=O)N1CCC[C@@]2(COC(=O)N2)[C@@H]1Cc1cccc(-c2ccccc2)c1 [Example 29] = > 10000 nM
• CCNC(=O)N1CCC[C@@]2(COCCC(=O)N2)[C@@H]1CO[C@H]1CC[C@@H](c2ccccc2)CC1 (relative stereo) [Example 55] = < 100 nM
• CCNC(=O)N1CCCC2(CCOC(=O)N2)C1CO[C@H]1CC[C@@H](c2ccccc2)CC1 (stereo partly shown) [Example 12] = 1000 to 10000 nM
• C[C@@H]1C[C@@]2(COCC(=O)N2)[C@H](CO[C@H]2CC[C@@H](c3ccccc3)CC2)N1C(=O)[C@H]1C[C@@H](F)C1 [Example 59] = < 100 nM
• COC(=O)N1CCC[C@@]2(CCOC(=O)N2)[C@H]1Cc1cccc(-c2ccccc2)c1 (single isomer, unassigned) [Example 23] = > 10000 nM
• CCNC(=O)N1CCC[C@@]2(CNS(=O)(=O)N2)[C@@H]1Cc1cccc(-c2ccccc2)c1 (racemic) [Example 30] = > 10000 nM
• C[C@@H]1C[C@@]2(COCC(=O)N2)[C@H](Cc2cccc(-c3cc(F)cc(F)c3)c2F)N1C(=O)[C@H]1C[C@@H](F)C1 [Example 82] = < 100 nM
• CCNC(=O)N1CCCC2(COCCS(=O)(=O)N2)C1CO[C@H]1CC[C@@H](c2ccccc2)CC1 (mixture of isomers) [Example 38] = 100 to 1000 nM
• O=C1N[C@@]2(CCN(C(=O)OCC(F)F)[C@@H]2Cc2cccc(-c3cc(F)cc(F)c3)c2F)COC1F (single isomer, unassigned) [Example 75] = > 10000 nM

---

Molecular target: human recombinant OX2 (hOX2) receptor (Homo sapiens)
Sequence (O43614 1-444): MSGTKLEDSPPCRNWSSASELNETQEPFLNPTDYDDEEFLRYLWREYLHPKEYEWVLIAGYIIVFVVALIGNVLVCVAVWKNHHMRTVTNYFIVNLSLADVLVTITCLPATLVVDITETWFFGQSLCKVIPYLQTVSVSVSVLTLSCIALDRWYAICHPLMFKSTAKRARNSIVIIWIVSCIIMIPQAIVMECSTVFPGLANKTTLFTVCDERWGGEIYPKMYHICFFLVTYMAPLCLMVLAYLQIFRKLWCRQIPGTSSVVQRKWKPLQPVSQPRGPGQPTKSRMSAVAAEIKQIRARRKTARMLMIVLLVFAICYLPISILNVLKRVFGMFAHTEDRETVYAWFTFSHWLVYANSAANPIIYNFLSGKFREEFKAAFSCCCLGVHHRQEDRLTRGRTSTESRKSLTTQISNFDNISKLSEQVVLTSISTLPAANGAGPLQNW
Assay: IP-1 accumulation assay (IP-One HTRF) in hOX2-CHO cells
Details: 60 min at 37° C., mean of at least two independent experiments, read-out: EC50_OX2R Category
MEASUREMENT KIND: EC50

- O=C1N[C@]2(CCN(C(=O)OCC(F)F)[C@H]2Cc2cccc(-c3cc(F)cc(F)c3)c2F)COC1F (single isomer, unassigned): 1000 to 10000 nM
- CCNC(=O)N1CCC[C@]2(COC(C)C(=O)N2)[C@H]1CO[C@H]1CC[C@@H](c2ccccc2)CC1 (single isomer, unassigned): > 10000 nM
- COC(=O)N1CCC[C@]2(CCOC(=O)N2)[C@@H]1Cc1cccc(-c2ccccc2)c1 (single isomer, unassigned): > 10000 nM
- CCNC(=O)N1CCC[C@]2(CNS(=O)(=O)N2)[C@H]1Cc1cccc(-c2ccccc2)c1 (single isomer, unassigned): > 10000 nM
- C[C@@H]1C[C@@]2(COCC(=O)N2)[C@H](CO[C@H]2CC[C@@H](c3ccccc3)CC2)N1C(=O)NCC(F)F: < 100 nM
- C[C@@H]1C[C@@]2(COCC(=O)N2)[C@H](Cc2cccc(-c3cc(F)cc(F)c3)c2F)N1S(C)(=O)=O: > 10000 nM
- O=C1COCC2(CCN(C(=O)[C@H]3C[C@@H](F)C3)C2Cc2cccc(-c3cc(F)cc(F)c3)c2F)N1 (mixture of isomers): 100 to 1000 nM
- CCNC(=O)N1CCC[C@@]2(COC(F)C(=O)N2)[C@@H]1CO[C@H]1CC[C@@H](c2ccccc2)CC1 (single isomer, unassigned): < 100 nM
- COCCNC(=O)N1[C@H](C)C[C@@]2(COCC(=O)N2)[C@@H]1CO[C@H]1CC[C@@H](c2ccccc2)CC1: < 100 nM
- CCNC(=O)N1CCC[C@@]2(CNS(=O)(=O)N2)[C@@H]1Cc1cccc(-c2ccccc2)c1 (single isomer, unassigned) [Example 31]: > 10000 nM
- CCNC(=O)N1CCC[C@@]2(CCOC(=O)N2)[C@@H]1Cc1cccc(-c2ccccc2)c1 (racemic) [Example 24]: 1000 to 10000 nM
- O=C1COC[C@@]2(CCN(C(=O)[C@H]3C[C@@H](F)C3)[C@H]2Cc2cccc(-c3cc(F)cc(F)c3)c2F)N1 (single isomer, unassigned): 100 to 1000 nM
- CCNC(=O)N1C[C@@H](C)C2(COCC(=O)N2)C1Cc1cccc(-c2cc(F)cc(F)c2)c1F (mixture of isomers): 1000 to 10000 nM

Entry source: patent US20240254143A1
